Listing of entries alongside the reported normalized RNA/DNA level with ligand (log10).
B1: library; a variant is named by its letters at N, in order (parent)
chain: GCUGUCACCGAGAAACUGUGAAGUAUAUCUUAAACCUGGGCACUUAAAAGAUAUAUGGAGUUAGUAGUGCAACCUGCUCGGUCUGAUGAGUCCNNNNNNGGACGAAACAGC

- Variants of: B1
- PROTOCOL_DESCRIPTION: normalized RNA/DNA level with ligand (relative to sTRSVctl = 100) (log10 (% of sTRSVctl)); HEK293T; ligand: cyclic di-GMP (c-di-GMP-II aptamer); ligand concentration (+) RNA-Seq: 1 mM; higher = less ribozyme self-cleavage, higher mRNA level
- MEASUREMENT_PARAMETERS: reporter: mCherry (pCS4076), ligand present: yes
The answer should be a number; do not append a unit.

CUGGGG : 1.83
CAAAUU : 1.67
CAGCGG : 1.9
UAAGGA : 1.7

// normalized RNA/DNA level with ligand (log10) lookup, key: GAAAGC
1.72

// normalized RNA/DNA level with ligand (log10) lookup, key: CUUUGA
1.79

These measurements were taken from the supplement of paper PMC6757056.
